From: paper PMC2175342

SYSTEM_TESTED: HeLa cell telomerase (Homo sapiens, UniProt O14746)
Sequence (O14746 whole entry): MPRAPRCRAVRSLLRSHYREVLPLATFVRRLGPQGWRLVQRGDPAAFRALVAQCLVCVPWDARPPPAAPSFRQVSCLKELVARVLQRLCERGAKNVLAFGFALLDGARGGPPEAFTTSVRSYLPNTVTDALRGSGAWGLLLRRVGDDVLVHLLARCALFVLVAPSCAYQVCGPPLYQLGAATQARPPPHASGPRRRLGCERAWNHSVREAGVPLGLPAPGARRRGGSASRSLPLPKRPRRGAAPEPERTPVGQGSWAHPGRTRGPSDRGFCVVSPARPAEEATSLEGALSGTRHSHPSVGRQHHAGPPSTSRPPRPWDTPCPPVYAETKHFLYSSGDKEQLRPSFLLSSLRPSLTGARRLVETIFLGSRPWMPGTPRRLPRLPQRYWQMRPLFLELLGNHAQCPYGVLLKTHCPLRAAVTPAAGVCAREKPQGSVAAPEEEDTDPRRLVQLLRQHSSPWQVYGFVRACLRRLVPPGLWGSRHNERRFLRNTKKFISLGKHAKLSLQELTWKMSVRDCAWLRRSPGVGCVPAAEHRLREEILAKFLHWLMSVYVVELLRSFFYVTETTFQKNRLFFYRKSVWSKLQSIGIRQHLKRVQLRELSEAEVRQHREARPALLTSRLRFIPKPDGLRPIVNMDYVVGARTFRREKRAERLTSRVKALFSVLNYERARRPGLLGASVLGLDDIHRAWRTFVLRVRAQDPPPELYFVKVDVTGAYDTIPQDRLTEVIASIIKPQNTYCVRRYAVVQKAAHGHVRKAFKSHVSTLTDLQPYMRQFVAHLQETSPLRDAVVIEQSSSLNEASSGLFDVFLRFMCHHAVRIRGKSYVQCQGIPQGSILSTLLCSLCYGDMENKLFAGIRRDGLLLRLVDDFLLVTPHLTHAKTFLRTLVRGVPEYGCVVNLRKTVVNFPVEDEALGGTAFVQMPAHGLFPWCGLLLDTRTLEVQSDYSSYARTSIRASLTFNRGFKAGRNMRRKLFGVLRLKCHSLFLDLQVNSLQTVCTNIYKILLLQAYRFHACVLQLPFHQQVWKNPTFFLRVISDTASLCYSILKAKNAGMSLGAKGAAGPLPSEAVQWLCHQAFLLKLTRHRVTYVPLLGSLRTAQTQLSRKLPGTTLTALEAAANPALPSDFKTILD
Sequence (O60832 whole entry partner): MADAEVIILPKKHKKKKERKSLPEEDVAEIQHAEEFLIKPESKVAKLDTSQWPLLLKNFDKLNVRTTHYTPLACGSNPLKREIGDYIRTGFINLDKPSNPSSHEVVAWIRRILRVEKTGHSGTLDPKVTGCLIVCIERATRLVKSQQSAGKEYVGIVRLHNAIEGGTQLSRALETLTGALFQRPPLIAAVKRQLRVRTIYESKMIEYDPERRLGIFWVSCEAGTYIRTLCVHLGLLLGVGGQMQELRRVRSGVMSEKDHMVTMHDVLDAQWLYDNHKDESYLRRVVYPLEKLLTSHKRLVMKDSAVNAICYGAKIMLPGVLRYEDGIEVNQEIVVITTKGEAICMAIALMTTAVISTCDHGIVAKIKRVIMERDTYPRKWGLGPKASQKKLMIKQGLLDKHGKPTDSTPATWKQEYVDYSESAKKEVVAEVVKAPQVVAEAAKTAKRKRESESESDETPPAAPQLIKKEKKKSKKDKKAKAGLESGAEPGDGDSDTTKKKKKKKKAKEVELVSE
Sequence (Q9NX24 whole entry partner): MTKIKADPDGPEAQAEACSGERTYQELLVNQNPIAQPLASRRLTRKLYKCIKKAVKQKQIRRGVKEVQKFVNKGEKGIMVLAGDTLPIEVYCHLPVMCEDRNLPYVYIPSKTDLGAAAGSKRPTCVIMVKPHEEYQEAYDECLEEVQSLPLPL
Sequence (Q9NPE3 whole entry partner): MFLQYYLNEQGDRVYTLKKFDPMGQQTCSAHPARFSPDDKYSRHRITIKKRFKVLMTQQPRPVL
Sequence (Q9NY12 whole entry partner): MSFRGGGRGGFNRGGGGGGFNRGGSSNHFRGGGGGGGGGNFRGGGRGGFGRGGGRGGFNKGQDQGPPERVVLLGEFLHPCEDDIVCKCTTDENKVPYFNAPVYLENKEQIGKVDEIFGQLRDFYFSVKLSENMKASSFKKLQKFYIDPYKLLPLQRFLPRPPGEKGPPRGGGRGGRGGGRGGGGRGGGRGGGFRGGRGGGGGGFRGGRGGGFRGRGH
Sequence (Q9BUR4 whole entry partner): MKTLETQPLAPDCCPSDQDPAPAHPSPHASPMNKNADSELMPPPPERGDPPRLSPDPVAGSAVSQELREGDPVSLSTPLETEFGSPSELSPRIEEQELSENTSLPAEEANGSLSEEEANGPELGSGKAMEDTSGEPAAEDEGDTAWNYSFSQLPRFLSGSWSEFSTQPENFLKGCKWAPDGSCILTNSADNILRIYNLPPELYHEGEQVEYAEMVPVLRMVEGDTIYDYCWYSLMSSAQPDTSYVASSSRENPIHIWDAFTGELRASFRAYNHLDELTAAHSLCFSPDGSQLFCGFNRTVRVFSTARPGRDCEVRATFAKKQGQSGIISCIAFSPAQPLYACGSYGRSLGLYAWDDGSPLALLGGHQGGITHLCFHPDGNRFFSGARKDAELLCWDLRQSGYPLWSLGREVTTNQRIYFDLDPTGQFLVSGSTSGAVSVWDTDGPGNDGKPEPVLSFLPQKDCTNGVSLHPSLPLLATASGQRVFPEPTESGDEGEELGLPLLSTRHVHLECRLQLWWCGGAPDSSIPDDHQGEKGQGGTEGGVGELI
ASSAY_EXPLANATION: Semi-quantitative telomerase assay based on the 'stretch PCR' method
Assay type: biochemical
REPORTED_ENDPOINT: Ki (µM)
Give your result in µM as a bare value.

Lookup: Return reported Ki; argument: Cc1cn([C@H]2C[C@H](N=[N+]=[N-])[C@@H](COP(=O)(O)OP(=O)(O)OP(=O)(O)O)O2)c(=O)[nH]c1=O
Found: 15
